Tested on: CP262
Test: qHTS profiling for inhibitors of Plasmodium falciparum proliferation (AID 504749); also: nearly all actives have a fitted effect of over 60% in size
Settings: P. falciparum in erythrocytes, SYBR Green DNA, 72 h; series mostly up to 28.7 µM
Inconclusive results are not listed. The source made the active and inactive calls. Calls follow the shape of the dose curve; as a rule, active = well fitted inhibition curve with a large enough effect; inconclusive = small, poorly fitted or top-dose-only effect; inactive = flat fitted curve, though single readings scatter.
Labels: active, inactive

compound=CC(C)CN(C[C@@H](OP(=O)(O)O)[C@H](Cc1ccccc1)NC(=O)O[C@@H]1CCOC1)S(=O)(=O)c1ccc(N)cc1 group=inactive
compound="Cc1cc(CC(C)CC(C)(C)C)n(O)c(=O)c1 (stereo not given)" group=active
compound=CN1CC[C@H](CN2c3ccccc3Sc3ccccc32)C1 group=inactive
compound=CO/N=C(/C(=O)N[C@@H]1C(=O)N2C(C(=O)O)=CCS[C@H]12)c1csc(N)n1 group=inactive
compound=CC1(C)S[C@@H]2[C@H](NC(=O)COc3ccccc3)C(=O)N2[C@H]1C(=O)O group=inactive
